test system: SW-620; assay: Antiproliferative activity against human SW620 cells harboring KRAS G12V mutant assessed as inhibition of cell proliferation incubated for 7 days by CellTiterGlo-3D proliferation assay; format: functional, cell-based; conditions: SW-620, 168 h
quantity-measured: pIC50
# pIC50 = -log10(concentration in molar units)

Measured pIC50 of COc1cc2nc(C)nc(N[C@H](C)c3cc(N)cc(C(F)(F)F)c3)c2cc1O[C@H]1CCOC1 : 7.52

Measured pIC50 of COc1cc2nc(C)nc(N[C@H](C)c3cc(N)cc(C(F)(F)F)c3)c2cc1C1CCN(C(=O)CCCCCC(=O)N[C@H](C(=O)N2C[C@H](O)C[C@H]2C(=O)N[C@@H](C)c2ccc(-c3scnc3C)cc2)C(C)(C)C)CC1 : 7.73

Measured pIC50 of COc1cc2nc(C)nc(N[C@H](C)c3cc(N)cc(C(F)(F)F)c3)c2cc1C1CCN(C(=O)CCCCCC(=O)N[C@H](C(=O)N2C[C@@H](O)C[C@H]2C(=O)N[C@@H](C)c2ccc(-c3scnc3C)cc2)C(C)(C)C)CC1 : 6.52

Further cases:
Measured pIC50 of COc1cc2nc(C)nc(NC(C)c3cc(N)cc(C(F)(F)F)c3)c2cc1C1CCN(C(C)=O)CC1 (centres undefined) : 7.44

* * *

target: von Hippel-Lindau disease tumor suppressor/Son of sevenless homolog 1 (Homo sapiens) (UniProt Q07889+P40337); assay: PROTAC activity at VHL/SOS1 in human NCI-H358 cells assessed as induction of SOS1 protein degradation at 1.0 uM incubated for 24 hrs by Immunoblot analysis relative to control; assay type: cell-based
Sequence (P40337 whole entry, looked up): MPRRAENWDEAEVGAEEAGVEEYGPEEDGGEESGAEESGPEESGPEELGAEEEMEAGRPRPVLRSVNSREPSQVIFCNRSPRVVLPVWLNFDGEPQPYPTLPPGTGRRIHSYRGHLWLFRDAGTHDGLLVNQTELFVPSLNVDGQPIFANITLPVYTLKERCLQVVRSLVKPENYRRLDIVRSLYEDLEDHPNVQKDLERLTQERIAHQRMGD
Sequence (Q07889 whole entry, looked up): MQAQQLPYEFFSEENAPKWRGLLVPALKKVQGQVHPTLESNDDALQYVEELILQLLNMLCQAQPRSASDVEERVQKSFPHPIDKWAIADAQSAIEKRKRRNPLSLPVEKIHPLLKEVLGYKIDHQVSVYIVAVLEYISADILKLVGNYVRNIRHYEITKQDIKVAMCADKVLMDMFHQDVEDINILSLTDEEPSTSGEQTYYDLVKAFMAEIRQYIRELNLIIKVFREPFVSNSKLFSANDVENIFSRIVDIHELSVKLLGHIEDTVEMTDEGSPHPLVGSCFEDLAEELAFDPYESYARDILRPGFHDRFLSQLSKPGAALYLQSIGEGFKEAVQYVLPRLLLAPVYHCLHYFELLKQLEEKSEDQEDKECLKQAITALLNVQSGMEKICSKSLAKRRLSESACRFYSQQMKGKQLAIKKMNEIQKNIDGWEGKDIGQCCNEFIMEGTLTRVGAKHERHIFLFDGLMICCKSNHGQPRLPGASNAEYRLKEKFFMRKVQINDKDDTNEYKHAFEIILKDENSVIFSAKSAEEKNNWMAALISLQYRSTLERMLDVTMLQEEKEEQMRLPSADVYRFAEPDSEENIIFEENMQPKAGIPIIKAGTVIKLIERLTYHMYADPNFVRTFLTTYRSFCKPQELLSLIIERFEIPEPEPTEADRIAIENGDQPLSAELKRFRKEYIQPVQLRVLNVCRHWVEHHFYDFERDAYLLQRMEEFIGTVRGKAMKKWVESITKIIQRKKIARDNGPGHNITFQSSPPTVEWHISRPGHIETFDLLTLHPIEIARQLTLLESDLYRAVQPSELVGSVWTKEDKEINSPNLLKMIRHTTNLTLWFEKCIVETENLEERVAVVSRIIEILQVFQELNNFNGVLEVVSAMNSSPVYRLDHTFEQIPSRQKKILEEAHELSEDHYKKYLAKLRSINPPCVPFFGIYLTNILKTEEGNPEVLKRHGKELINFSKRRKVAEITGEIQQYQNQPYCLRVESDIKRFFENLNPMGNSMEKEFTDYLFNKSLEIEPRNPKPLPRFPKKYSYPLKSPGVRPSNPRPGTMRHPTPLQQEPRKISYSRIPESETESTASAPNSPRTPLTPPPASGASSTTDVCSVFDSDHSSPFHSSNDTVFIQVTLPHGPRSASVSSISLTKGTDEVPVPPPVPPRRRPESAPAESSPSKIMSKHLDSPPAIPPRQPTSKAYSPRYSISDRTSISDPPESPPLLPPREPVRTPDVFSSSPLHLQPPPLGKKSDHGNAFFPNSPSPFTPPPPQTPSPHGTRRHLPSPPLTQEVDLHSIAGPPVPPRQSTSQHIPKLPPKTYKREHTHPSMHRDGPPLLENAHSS
quantity-measured: Activity (%)
Numbers only here, please. The scale is %.

Examples with their reported Activity follow.
Measured Activity of COc1cc2nc(C)nc(N[C@H](C)c3cc(N)cc(C(F)(F)F)c3)c2cc1C1CCN(CCCCCCCC(=O)N[C@H](C(=O)N2C[C@H](O)C[C@H]2C(=O)N[C@@H](C)c2ccc(-c3scnc3C)cc2)C(C)(C)C)CC1 : 7.32

Measured Activity of COc1cc2nc(C)nc(N[C@H](C)c3cc(N)cc(C(F)(F)F)c3)c2cc1C1CCN(C(=O)CCOCCC(=O)N[C@H](C(=O)N2C[C@H](O)C[C@H]2C(=O)N[C@@H](C)c2ccc(-c3scnc3C)cc2)C(C)(C)C)CC1 : 22.9

Measured Activity of COc1cc2nc(C)nc(N[C@H](C)c3cc(N)cc(C(F)(F)F)c3)c2cc1C1CCN(C(=O)CCCOCC(=O)N[C@H](C(=O)N2C[C@H](O)C[C@H]2C(=O)N[C@@H](C)c2ccc(-c3scnc3C)cc2)C(C)(C)C)CC1 : 6.52

Measured Activity of COc1cc2nc(C)nc(N[C@H](C)c3cc(N)cc(C(F)(F)F)c3)c2cc1C1CCN(C(=O)COCCCC(=O)N[C@H](C(=O)N2C[C@H](O)C[C@H]2C(=O)N[C@@H](C)c2ccc(-c3scnc3C)cc2)C(C)(C)C)CC1 : 90.2

Measured Activity of COc1cc2nc(C)nc(N[C@H](C)c3cc(N)cc(C(F)(F)F)c3)c2cc1C1CCN(C(=O)COCCOCC(=O)N[C@H](C(=O)N2C[C@H](O)C[C@H]2C(=O)N[C@@H](C)c2ccc(-c3scnc3C)cc2)C(C)(C)C)CC1 : 62.5

Measured Activity of COc1cc2nc(C)nc(N[C@H](C)c3cc(N)cc(C(F)(F)F)c3)c2cc1C1CCN(CCCCCCC(=O)N[C@H](C(=O)N2C[C@H](O)C[C@H]2C(=O)N[C@@H](C)c2ccc(-c3scnc3C)cc2)C(C)(C)C)CC1 : 10.7

Measured Activity of COc1cc2nc(C)nc(N[C@H](C)c3cc(N)cc(C(F)(F)F)c3)c2cc1C1CCN(C(=O)CCCC(=O)N[C@H](C(=O)N2C[C@H](O)C[C@H]2C(=O)N[C@@H](C)c2ccc(-c3scnc3C)cc2)C(C)(C)C)CC1 : 11.7

Measured Activity of COc1cc2nc(C)nc(N[C@H](C)c3cc(N)cc(C(F)(F)F)c3)c2cc1C1CCN(C(=O)CCCCCCC(=O)N[C@H](C(=O)N2C[C@H](O)C[C@H]2C(=O)N[C@@H](C)c2ccc(-c3scnc3C)cc2)C(C)(C)C)CC1 : 47.3

Measured Activity of COc1cc2nc(C)nc(N[C@H](C)c3cc(N)cc(C(F)(F)F)c3)c2cc1C1CCN(C(=O)CCCCCCCCC(=O)N[C@H](C(=O)N2C[C@H](O)C[C@H]2C(=O)N[C@@H](C)c2ccc(-c3scnc3C)cc2)C(C)(C)C)CC1 : 0

Let's switch to this compound now.
Measured Activity of COc1cc2nc(C)nc(N[C@H](C)c3cc(N)cc(C(F)(F)F)c3)c2cc1C1CCN(C(=O)CCCCCC(=O)N[C@H](C(=O)N2C[C@H](O)C[C@H]2C(=O)N[C@@H](C)c2ccc(-c3scnc3C)cc2)C(C)(C)C)CC1 : 98.2
